For each entry below, report its PD1 Binding (HTRF signal) value.
Biological target: PD-1 (human, UniProt Q15116 25-167, limits assumed)
Sequence (Q15116 25-167 limits assumed): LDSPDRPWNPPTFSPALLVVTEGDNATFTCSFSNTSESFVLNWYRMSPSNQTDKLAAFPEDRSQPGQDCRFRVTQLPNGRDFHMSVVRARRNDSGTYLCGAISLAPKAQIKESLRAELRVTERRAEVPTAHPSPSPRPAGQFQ
Experiment: HTRF
Kindly provide the number alone.

Give reported PD1 Binding (HTRF signal) value for PD1-IL2-R02-A11 (scFv) scFv: QVQLVQSGAEVKKPGASVKVSCKASGHTFTRYYMHWVRQAPGQGLEWMGIINPSGGYATYAQKFQGRVTMTRDTSTSTVYMELSSLRSEDTAVYYCASGWDVWGQGTLVTVSSASGGGGSGGGGSGGGGSHASDIQMTQSPSSLSASVGDRVTITCRASQSINSWLAWYQQKPGKAPKLLIYATSTLESGVPSRFSGSGSGTDFTLTISSLQPEDFATYYCQQSYSFPPTFGQGTKVEIK
1620

Give reported PD1 Binding (HTRF signal) value for PD1-R04-C10 (scFv) MSTSTEQKLISEEDLQVQLVQSGAEVKKPGASVKVSCKASGYTFTTYYMHWVRQAPGQGLEWMGIINPSGGGTLYAQKFQGRVTMTRDTSTSTVYMELSSLRSEDTAVYYCAAGLFIWGQGTTVTVSSASGGGGSGGGGSGGGGSHASDIVMTQSPDSLAVSLGERATINCKASQSLLHSSSNKNYLAWYQQKPGQPPKLLIYWASTRESGVPDRFSGSGSGTDFTLTISSLQAEDVAVYYCQQYYSTPITFGPGTKVDIKGSGLNDIFEAQKIEWHEGKPIPNPLLGLDST
1550

// provenance: patent US20240024501A1
